B1: Intersectin-1, residues 1156 to 1213; numbered along this chain, Q15811 (parent)
chain: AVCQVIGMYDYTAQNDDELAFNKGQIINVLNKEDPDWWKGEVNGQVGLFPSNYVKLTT

variants of: B1; assay: abundance fitness (aPCA) (normalised: wild type 0, dead -1); higher = more abundant; growth selection in yeast, the domain comes from the species named; conditions: Homo sapiens
resultType: abundance fitness

Q: Read off the recorded abundance fitness for Y53C
Result: 0.034

Q: Read off the recorded abundance fitness for E18D
Result: -0.263

Q: Read off the recorded abundance fitness for T58A
Result: -0.315

Q: Read off the recorded abundance fitness for V2G
Result: -0.115

Q: Read off the recorded abundance fitness for W37G
Result: -0.72

Q: Read off the recorded abundance fitness for L56I
Result: 0.069

Q: Read off the recorded abundance fitness for Q4W
Result: -0.451

Q: Read off the recorded abundance fitness for F21D
Result: -0.656

Q: Read off the recorded abundance fitness for Q4F
Result: -0.719

Q: Read off the recorded abundance fitness for A20P
Result: -0.123

Q: Read off the recorded abundance fitness for V5E
Result: -0.843

Q: Read off the recorded abundance fitness for D34K
Result: -0.176

Q: Read off the recorded abundance fitness for P50R
Result: -0.323
